Tested on: SW-620 colon
Assay Procedure: NCI-60 one-dose screen, 48 h
Test Context: 10 µM unless noted
Compounds without any hit were thinned out: in the full panel of roughly 83,000, 20% have a hit. Active and inactive are the calls of the source. How the source made its calls: active means growth percent below 10; inactive means the rest.
Field 'call' accepts active, inactive

Any idea what this test logged for ClCCn1cnc2c(SCc3ccccc3)ncnc21 ?
inactive

***
Tell me the recorded outcome of this test for COc1ccc(-c2cn(Cc3cc4ccccc4s3)nn2)cc1OCCN1CCCCC1 .
inactive

Assay result, entry COc1ccc(/C=N/Nc2c3ccccc3nc3ccccc23)cc1 — outcome?
inactive

What did the test return for COc1cc(/C=C/C(=O)c2cc(OC)c(OC)c(OC)c2)ccc1Oc1nc2c(c(=O)n(C)c(=O)n2C)n1C ?
active

Can you look up the reported call for C#Cc1cccc(Nc2ncnc3cc(NC(=O)CCl)ccc23)c1 for me?
active

Returns: the outcome recorded for c1ccc2cc(Cn3cc(CSc4nc5ccccc5s4)nn3)ccc2c1 in this assay.
inactive

What did this assay record as the result for Cn1cc(-c2nc3c(F)cc4[nH]ncc4c3c3c2CCCC3)c(C(F)(F)F)n1 ?
inactive
